assay_name: Metabolic stability in Sprague-Dawley rat liver microsome assessed as compound remaining after 60 mins by LC-MS-MS
Format: ADME
protocol_conditions: liver microsomes, read-out: Stability
quantity: remaining at 1 h

Input line: I have this compound here, N#Cc1ccccc1N1CCN(C(=O)COCc2ccccc2)CC1 , and I need its recorded remaining at 1 h.
Output line: < 5%

---

target_under_test: UniProtKB P31424
Sequence (P31424 21-1203 limits assumed): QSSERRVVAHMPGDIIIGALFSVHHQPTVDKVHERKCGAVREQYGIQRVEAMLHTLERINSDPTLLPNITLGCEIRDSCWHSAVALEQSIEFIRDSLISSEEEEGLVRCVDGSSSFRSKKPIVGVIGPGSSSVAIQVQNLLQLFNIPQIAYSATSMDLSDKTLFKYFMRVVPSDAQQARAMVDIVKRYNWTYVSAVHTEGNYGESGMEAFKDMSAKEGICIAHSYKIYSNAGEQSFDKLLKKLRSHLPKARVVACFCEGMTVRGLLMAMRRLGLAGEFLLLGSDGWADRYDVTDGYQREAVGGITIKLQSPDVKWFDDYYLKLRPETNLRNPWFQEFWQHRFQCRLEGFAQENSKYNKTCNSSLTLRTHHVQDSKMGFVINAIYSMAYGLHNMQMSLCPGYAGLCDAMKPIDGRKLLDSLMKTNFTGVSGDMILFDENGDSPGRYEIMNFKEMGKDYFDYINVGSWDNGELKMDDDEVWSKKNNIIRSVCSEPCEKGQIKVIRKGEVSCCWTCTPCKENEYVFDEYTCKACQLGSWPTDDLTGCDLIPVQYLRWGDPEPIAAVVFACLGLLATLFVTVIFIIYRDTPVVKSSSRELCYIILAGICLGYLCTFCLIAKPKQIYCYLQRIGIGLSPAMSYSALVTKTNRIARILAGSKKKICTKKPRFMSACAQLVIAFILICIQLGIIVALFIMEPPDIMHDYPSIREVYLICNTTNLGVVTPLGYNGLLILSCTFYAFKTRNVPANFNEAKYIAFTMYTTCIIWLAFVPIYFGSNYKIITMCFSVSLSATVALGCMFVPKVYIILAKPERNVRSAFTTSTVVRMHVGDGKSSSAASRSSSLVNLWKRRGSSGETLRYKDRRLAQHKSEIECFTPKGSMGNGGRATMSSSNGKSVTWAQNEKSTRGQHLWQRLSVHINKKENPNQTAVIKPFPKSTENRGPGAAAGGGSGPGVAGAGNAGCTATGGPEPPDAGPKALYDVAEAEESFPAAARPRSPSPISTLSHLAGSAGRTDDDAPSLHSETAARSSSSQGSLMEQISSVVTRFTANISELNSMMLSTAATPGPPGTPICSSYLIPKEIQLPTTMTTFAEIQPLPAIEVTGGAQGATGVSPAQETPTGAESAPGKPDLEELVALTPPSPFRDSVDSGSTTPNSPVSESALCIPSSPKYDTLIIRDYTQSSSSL
assay_name: Positive allosteric modulation at rat mGluR5 receptor expressed in HEK293 cells assessed as glutamate-induced calcium fluorescence at 30 uM by Fluo-4/AM dye-based fluorescence assay in relative to glutamate
Type: functional, cell-based
Please enter Yes where Activity is greater than or equal to 80%, and No where it is lower.

Input line: Exam item: decide whether the reported Activity for O=C(COCc1ccccc1)N1CCN(c2ccccc2Cl)CC1 is at least 80%.
Output line: Yes
